Reference for the values: paper PMC4240464

Item-by-item account of log10 of kon
Target: T1, 6His–Evasin-4 (Rhipicephalus sanguineus, UniProt P0C8E9 24-127)
T1 sequence: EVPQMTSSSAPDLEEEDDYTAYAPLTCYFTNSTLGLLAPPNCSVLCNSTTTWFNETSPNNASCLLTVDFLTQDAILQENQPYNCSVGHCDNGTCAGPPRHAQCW
Test: SPR
value_kind: log10 of kon (log10 of the value in M⁻¹ s⁻¹)

- binder: "CCL8 (ligand) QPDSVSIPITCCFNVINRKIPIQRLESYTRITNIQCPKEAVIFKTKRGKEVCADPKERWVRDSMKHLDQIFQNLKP"
  log10 of kon: 6.85
- binder: "CCL23 (ligand) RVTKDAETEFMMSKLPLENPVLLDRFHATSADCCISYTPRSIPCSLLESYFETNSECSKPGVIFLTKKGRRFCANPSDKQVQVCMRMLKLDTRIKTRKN"
  log10 of kon: 3.78
- binder: "CCL19 (ligand) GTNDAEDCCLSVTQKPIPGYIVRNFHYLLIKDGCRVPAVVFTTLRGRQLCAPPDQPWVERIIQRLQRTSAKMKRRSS"
  log10 of kon: 6.41
- binder: "CCL3 (ligand) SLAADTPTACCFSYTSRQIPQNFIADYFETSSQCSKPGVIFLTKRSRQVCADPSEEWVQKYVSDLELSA"
  log10 of kon: 7.14
- binder: "CCL1 (ligand) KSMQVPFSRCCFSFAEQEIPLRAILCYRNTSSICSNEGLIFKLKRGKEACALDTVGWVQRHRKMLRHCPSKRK"
  log10 of kon: 7.22
